- System: Plasmodium falciparum
- test.details: GSK_TCMDC: Inhibition of Plasmodium falciparum 3D7 in whole erythrocytes, using parasite LDH activity as an index of growth.
- Format: functional, organism-based
- setup.conditions: Plasmodium falciparum, 3D7
Hi there, I'd appreciate the recorded XC50 for every entry that follows.
All answers are understood in µM, so give the number only.

Asked: Any idea what its XC50 is? The compound is O=C(NC1CCN(Cc2ccsc2)CC1)c1ccc(-c2cccc(C(F)(F)F)c2)s1
Given back: 1.44

Asked: Any idea what its XC50 is? The compound is Cc1cccc2nc(-c3cccc(-c4cccc(NC(=O)Nc5cccc(C#N)c5)c4)c3)[nH]c12
Given back: 0.104

Asked: Any idea what its XC50 is? The compound is Cc1cc(N[C@@H](Cc2ccccc2)C(=O)NC2CCCC2)nc(NCCc2cccs2)n1
Given back: 1.4

Asked: Any idea what its XC50 is? The compound is CC(=O)c1ccccc1OCCSc1nnc(Cc2cccs2)n1C1CCCCC1
Given back: 0.919

====

- System: Plasmodium falciparum
- test.details: GSK_TCMDC: Inhibition of Plasmodium falciparum 3D7 in whole erythrocytes, using parasite LDH activity as an index of growth.
- Format: functional, organism-based
- setup.conditions: Plasmodium falciparum, 3D7
Using XC50 as the sorting value, the categories are band A: < 300 nM; band B: ≥ 300 nM and < 800 nM; band C: ≥ 800 nM

Asked: Please report the category associated with O=C(c1ccc(Cl)cc1)C1CCCN(C2CCN(CCc3ccccc3)CC2)C1 (stereo unspecified) , nothing else.
Given back: band C

Asked: Please report the category associated with O=C(Cc1ccc(NC(=O)c2ccc(O)c(-c3ccc(Cl)c(Cl)c3)c2)cc1)NCCN1CCCCC1 , nothing else.
Given back: band C

Asked: Please report the category associated with Cc1cc(C2NC(=O)c3ccccc3N2)c(C)n1-c1ccc2c(c1)OCO2 (stereo unspecified) , nothing else.
Given back: band B

Asked: Please report the category associated with CC(=O)Nc1ccc(CN2CCCN(c3cc(NC(=O)c4cccc(C)c4)ccn3)CC2)cc1 , nothing else.
Given back: band C

Asked: Please report the category associated with O=C(Nc1ccc(-c2nc3ccccc3[nH]2)cc1)c1cnc(Cl)c(Cl)c1 , nothing else.
Given back: band B

Asked: Please report the category associated with Cc1cccc2nc(-c3ccc(-c4ccc(CN5CCN(CC6CCCN(C)C6)CC5)cc4)cc3)[nH]c12 (stereo unspecified) , nothing else.
Given back: band A

Asked: Please report the category associated with CCCC(C)Nc1nc(C)cc(N[C@@H](Cc2ccccc2)C(=O)NCCc2ccccc2)n1 (stereo partly specified) , nothing else.
Given back: band C

Asked: Please report the category associated with Cc1cc2c(cc1C(F)(F)F)N(C(=O)Nc1cc(C(=O)NC3CCN(Cc4ccccc4)C3)cc(C(F)(F)F)c1)CC2 (stereo unspecified) , nothing else.
Given back: band B

Asked: Please report the category associated with COc1ccc(C(=O)CCC(=O)N(Cc2ccc(-c3ccc(CNCc4cccnc4)cn3)cc2)C2CCN(Cc3ccccc3)CC2)cc1F , nothing else.
Given back: band C

Asked: Please report the category associated with COC(=O)c1cccc(CNCc2ccc(-c3ccc(-c4nc5cc(F)ccc5[nH]4)cc3)cc2)c1 , nothing else.
Given back: band A

Asked: Please report the category associated with NCCNC(=O)c1ccc(-c2cnc3[nH]cc(-c4ccc(C(N)=O)cc4)c3c2)cc1 , nothing else.
Given back: band A

Asked: Please report the category associated with CC(C)COc1ccc(Cl)cc1Cc1ccc(-c2nc3cc(F)c(F)cc3[nH]2)o1 , nothing else.
Given back: band C

Asked: Please report the category associated with NCc1ccc(CNCc2cccc(-c3ccc(-c4nc5cc(C(F)(F)F)ccc5[nH]4)cc3)c2)cc1 , nothing else.
Given back: band A

Asked: Please report the category associated with O=C(/C=C/c1ccccc1Cl)Nc1ccc(Br)c(OCCN2CCCCC2)c1 , nothing else.
Given back: band A

Asked: Please report the category associated with O=C(NCCN1CCOCC1)c1ccc(CNC(=O)c2ccc(O)c(-c3ccc(Cl)c(Cl)c3)c2)cc1 , nothing else.
Given back: band C

Asked: Please report the category associated with Cn1c(Nc2nnc(C3CC3)s2)nc2cc(Nc3ccnc(Nc4cccc(CS(C)(=O)=O)c4)n3)ccc21 , nothing else.
Given back: band B

Asked: Please report the category associated with CCc1cc2c3c(N)nc(N)nc3ccc2n1C(CC)CC , nothing else.
Given back: band A

Asked: Please report the category associated with Cc1cc(C)cc(NC(=S)NCCCCN2CCN(c3cccc(Cl)c3)CC2)c1 , nothing else.
Given back: band C

Asked: Please report the category associated with C[C@@H](N/C(=N\c1ccc(-c2ccccc2)cc1)Nc1ccc(C#N)cc1O)c1ccc(Br)cc1 , nothing else.
Given back: band B

Asked: Please report the category associated with COc1cc2c(cc1S(=O)(=O)c1ccc(COc3ccc(C(F)(F)F)cc3)cc1)CNCC2 , nothing else.
Given back: band B

Asked: Please report the category associated with O=C1O[C@H](c2ccccc2)[C@H](c2ccccc2)N(C(=O)OCc2ccccc2)[C@H]1Cc1ccccc1C1CCCC1 , nothing else.
Given back: band A

Asked: Please report the category associated with C[C@H](NC(=O)C1CCCC1)C(=O)Nc1ccc(-c2ccc(-c3nc4cc(C(F)(F)F)ccc4[nH]3)cc2)cc1 , nothing else.
Given back: band A

Asked: Please report the category associated with O=C(NCCc1ccccc1)N(Cc1ccccc1-c1cccc(CNCCc2ccccc2)c1)C1CCN(Cc2ccccc2)CC1 , nothing else.
Given back: band B

Asked: Please report the category associated with Nc1nc(N)c2cc(NC(=O)c3ccc(Cl)c(Cl)c3)ccc2n1 , nothing else.
Given back: band A

Asked: Please report the category associated with CCN(CC)CCOc1cc2c(cc1Br)-c1cc(Br)c(OCCN(CC)CC)cc1C2=NO , nothing else.
Given back: band C
